Where these numbers come from: ChEMBL document CHEMBL1926681

- procedure.summary: Cytotoxicity against human BXF 1352L cells after 4 days by propidium iodide staining-based fluorometric analysis
- Type: functional, cell-based
- assay.setup: 96 h
Here the recorded pIC50 is given for each entry.
To interpret pIC50, take it as minus log10 of a concentration measured in moles per litre.

Examples with answers:
[
  {
    "compound": "CS(=O)(=O)CCNCc1ccc(-c2ccc3ncnc(Nc4ccc(OCc5cccc(F)c5)c(Cl)c4)c3c2)o1 [LAPATINIB]",
    "parameter": "pIC50",
    "val": 4.94
  },
  {
    "compound": "COc1ccc2[nH]c(C(=O)c3cc4c(Nc5ccc(F)c(Cl)c5)ncnc4s3)cc2c1",
    "parameter": "pIC50",
    "val": 4.61
  },
  {
    "compound": "O=C(c1cc2ccccc2[nH]1)c1cc2c(Nc3cccc(Cl)c3)ncnc2s1",
    "parameter": "pIC50",
    "val": 4.80
  },
  {
    "compound": "C#Cc1cccc(Nc2ncnc3cc(OCCOC)c(OCCOC)cc23)c1 [ERLOTINIB]",
    "parameter": "pIC50",
    "val": 4.06
  },
  {
    "compound": "O=C(c1cc2cc(O)ccc2[nH]1)c1cc2c(Nc3ccc(F)c(Cl)c3)ncnc2s1",
    "parameter": "pIC50",
    "val": 5.22
  }
]

Let us examine a further case.
Answer with reported pIC50 of O=C(c1cc2ccccc2[nH]1)c1cc2c(Nc3ccc(F)c(Cl)c3)ncnc2s1
4.95

---

- procedure.summary: Cytotoxicity against human OVXF 899L cells after 4 days by propidium iodide staining-based fluorometric analysis
- Format: functional, cell-based
- assay.setup: 96 h
pIC50: −log10 of the molar value.
Assign T whenever pIC50 does not fall below 5; assign F whenever it does.

[
  {
    "smiles.str": "COc1ccc2[nH]c(C(=O)c3cc4c(Nc5ccc(F)c(Cl)c5)ncnc4s3)cc2c1",
    "class.name": "F"
  },
  {
    "smiles.str": "O=C(c1cc2cc(O)ccc2[nH]1)c1cc2c(Nc3ccc(F)c(Cl)c3)ncnc2s1",
    "class.name": "T"
  },
  {
    "smiles.str": "O=C(c1cc2ccccc2[nH]1)c1cc2c(Nc3ccc(F)c(Cl)c3)ncnc2s1",
    "class.name": "T"
  }
]

Next:
# bool: pIC50 of CS(=O)(=O)CCNCc1ccc(-c2ccc3ncnc(Nc4ccc(OCc5cccc(F)c5)c(Cl)c4)c3c2)o1 >= 5
T

---

- assayed.system: Epidermal growth factor receptor (Homo sapiens, UniProt P00533)
- Sequence (P00533 whole entry): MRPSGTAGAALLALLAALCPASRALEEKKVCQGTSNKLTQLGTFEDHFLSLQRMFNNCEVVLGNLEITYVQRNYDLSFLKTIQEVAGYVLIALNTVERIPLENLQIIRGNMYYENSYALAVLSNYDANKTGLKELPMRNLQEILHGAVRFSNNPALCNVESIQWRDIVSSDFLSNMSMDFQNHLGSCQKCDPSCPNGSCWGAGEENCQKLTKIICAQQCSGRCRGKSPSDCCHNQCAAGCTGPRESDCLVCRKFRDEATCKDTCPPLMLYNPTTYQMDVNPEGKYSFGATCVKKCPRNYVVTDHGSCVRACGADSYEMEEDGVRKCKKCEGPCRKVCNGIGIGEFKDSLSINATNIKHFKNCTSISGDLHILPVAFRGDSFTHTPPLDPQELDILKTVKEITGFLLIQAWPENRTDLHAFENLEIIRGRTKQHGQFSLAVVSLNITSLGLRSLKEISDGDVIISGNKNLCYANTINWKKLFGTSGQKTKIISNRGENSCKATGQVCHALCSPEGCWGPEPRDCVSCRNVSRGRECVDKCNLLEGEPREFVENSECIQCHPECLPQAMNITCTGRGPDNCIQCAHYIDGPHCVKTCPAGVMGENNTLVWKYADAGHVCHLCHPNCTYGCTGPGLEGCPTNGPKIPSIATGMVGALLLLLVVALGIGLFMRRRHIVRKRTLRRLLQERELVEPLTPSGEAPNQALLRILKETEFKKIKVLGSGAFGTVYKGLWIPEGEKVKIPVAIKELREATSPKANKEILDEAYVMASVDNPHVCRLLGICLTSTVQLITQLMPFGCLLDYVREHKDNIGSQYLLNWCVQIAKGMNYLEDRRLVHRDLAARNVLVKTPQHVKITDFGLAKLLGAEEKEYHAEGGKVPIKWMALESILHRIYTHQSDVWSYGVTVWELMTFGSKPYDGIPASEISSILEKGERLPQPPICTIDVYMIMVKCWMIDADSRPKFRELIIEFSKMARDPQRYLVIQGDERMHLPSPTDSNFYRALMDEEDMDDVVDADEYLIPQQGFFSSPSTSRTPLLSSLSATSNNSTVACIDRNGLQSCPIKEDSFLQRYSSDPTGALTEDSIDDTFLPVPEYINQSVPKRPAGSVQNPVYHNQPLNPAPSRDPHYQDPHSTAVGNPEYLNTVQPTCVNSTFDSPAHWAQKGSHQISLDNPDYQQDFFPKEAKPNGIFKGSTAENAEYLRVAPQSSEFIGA
- procedure.summary: Inhibition of EGFR using poly(Glu,Tyr)4:1 as substrate and [gamma33P]ATP at 1 uM after 60 mins by scintillation counting
Here the recorded inhibition is given for each entry.
Record the value in %, omitting the unit from your answer.

Examples with answers:
[
  {
    "smiles.str": "O=C(c1cc2ccccc2[nH]1)c1cc2c(NCc3ccccc3)ncnc2[nH]1",
    "val": 55
  },
  {
    "smiles.str": "C#Cc1cccc(Nc2ncnc3sc(C(=O)c4cc5ccccc5[nH]4)cc23)c1",
    "val": 93
  },
  {
    "smiles.str": "COc1ccc2[nH]c(C(=O)c3cc4c(Nc5cccc(I)c5)ncnc4[nH]3)cc2c1",
    "val": 88
  },
  {
    "smiles.str": "O=C(c1cc2ccccc2[nH]1)c1cc2c(Nc3cccc(C(F)(F)F)c3)ncnc2s1",
    "val": 79
  },
  {
    "smiles.str": "CN(c1ccc(F)c(Cl)c1)c1ncnc2sc(C(=O)c3cc4ccccc4[nH]3)cc12",
    "val": 22
  }
]

Answer with reported inhibition of COc1cnc2[nH]c(C(=O)c3cc4c(Nc5cccc(I)c5)ncnc4[nH]3)cc2c1
77

Answer with reported inhibition of O=C(c1cc2ccccc2[nH]1)c1cc2c(Nc3ccc(OCc4cccc(F)c4)cc3Cl)ncnc2s1
91

Answer with reported inhibition of C[C@@H](Nc1ncnc2sc(C(=O)c3cc4ccccc4[nH]3)cc12)c1ccccc1
88

Answer with reported inhibition of O=C(c1cc2ccccc2[nH]1)c1cc2c(Nc3ccc(F)c(Cl)c3)ncnc2s1
100

Answer with reported inhibition of O=C(c1cc2ccccc2[nH]1)c1cc2c(Nc3ccc(OCc4cccc(F)c4)cc3Cl)ncnc2[nH]1
77

Answer with reported inhibition of O=C(c1cc2ccccc2[nH]1)c1cc2c(Nc3ccc(F)cc3)ncnc2s1
96

Answer with reported inhibition of O=C(c1cc2ccccc2[nH]1)c1cc2c(Nc3ccc(O)cc3)ncnc2[nH]1
57

Answer with reported inhibition of O=C(c1cc2ccccc2[nH]1)c1cc2c(Nc3ccc(Cl)cc3)ncnc2[nH]1
68

Answer with reported inhibition of O=C(c1cc2ccccc2[nH]1)c1cc2c(Nc3cccc(Cl)c3)ncnc2s1
99

Answer with reported inhibition of O=C(c1cc2ccccc2[nH]1)c1cc2c(Nc3ccc(Cl)cc3)ncnc2s1
80

Answer with reported inhibition of C[C@@H](Nc1ncnc2[nH]c(C(=O)c3cc4ccccc4[nH]3)cc12)c1ccccc1
82

Answer with reported inhibition of COc1ccc2[nH]c(C(=O)c3cc4c(Nc5ccc(F)c(Cl)c5)ncnc4s3)cc2c1
96

Answer with reported inhibition of O=C(c1cc2ccccc2s1)c1cc2c(Nc3ccc(F)c(Cl)c3)ncnc2s1
99

Answer with reported inhibition of O=C(c1cc2ccccc2[nH]1)c1cc2c(NCc3ccccc3)ncnc2s1
77

Answer with reported inhibition of O=C(c1cc2ccccc2[nH]1)c1cc2c(Nc3cccc(I)c3)ncnc2s1
73
